- Measurement target: hK2 (Homo sapiens, UniProt P20151)
- Construct: made in house
- Sequence (P20151 25-261): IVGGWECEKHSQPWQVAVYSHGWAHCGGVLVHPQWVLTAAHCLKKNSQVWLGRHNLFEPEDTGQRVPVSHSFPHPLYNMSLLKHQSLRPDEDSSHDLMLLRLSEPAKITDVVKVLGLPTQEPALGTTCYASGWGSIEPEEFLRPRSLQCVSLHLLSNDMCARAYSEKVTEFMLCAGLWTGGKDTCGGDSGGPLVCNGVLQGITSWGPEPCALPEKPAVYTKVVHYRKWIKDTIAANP
- Test protocol: Kinetic constants of AMC substrate hydrolysis by hK2
- Type: biochemical
- Design: key: The entry “NR” means that no reaction was detected
- Test parameters: 50 mM Tris pH 7.5, 0.1 M NaCl, 0.2% BSA, 37° C.; Lineweaver-Burk; NR = no reaction detected
- Description: The measurements were done with Fluoroscan II (Labsystems, Helsinki, Finland) using a 355 nm excitation filter and a 460 nm emission filter. The fluorescence of 7-amino-4-methylcoumarin (AMC) (Sigma, St. Louis, Mo., USA) was determined to be 700 FIU/nmol and this value was used in the calculations of the rate of product formation. […] Km value for the substrates cleaved by hK2 at these conditions were determined using at least four substrate concentrations ranging from 0.2×Km to 5×Km. […]
Non-standard residues stand in square brackets, D forms with d. Residues, ends and D or L forms follow the SMILES beside them. *: point of attachment. AMC = Cc1cc(=O)oc2cc(N*)ccc12; Boc = CC(C)(C)OC(=O)*

Molecule	Kcat
Cc1cc(=O)oc2cc(NC(=O)[C@H](CCCCN)NC(=O)[C@H](CC(C)C)NC(=O)[C@H](N)C(C)C)ccc12 [Val Leu Lys-AMC, H-D-Val-Leu-Lys-AMC] (H-[dV]-Leu-Lys-{AMC})	NR
Cc1cc(=O)oc2cc(NC(=O)[C@H](CCCNC(=N)N)NC(=O)CNC(=O)[C@H](CCC(N)=O)NC(=O)OC(C)(C)C)ccc12 [Gln Gly Arg-AMC, Boc-Gln-Gly-Arg-AMC] (Boc-Gln-Gly-Arg-{AMC})	NR
Cc1cc(=O)oc2cc(NC(=O)[C@H](CCCNC(=N)N)NC(=O)[C@H](CO)NC(=O)[C@H](Cc3ccccc3)NC(=O)OC(C)(C)C)ccc12 [Phe Ser Arg-AMC, Boc-Phe-Ser-Arg-AMC] (Boc-Phe-Ser-Arg-{AMC})	NR
